details: in ethanol, 303.15 K
ENDPOINT_NAME: solubility (mole fraction)

Problem: I would be grateful if you could share the reported solubility (mole fraction) for CO[C@@]1(NC(=O)CSCC#N)C(=O)N2C(C(=O)O)=C(CSc3nnnn3C)CS[C@@H]21 .
Solution: 0.000757

---

conditions: in methanol, 303.15 K
ENDPOINT_NAME: solubility (mole fraction)
Answer field: number only, no words.

Problem: # solubility (mole fraction) lookup, item CO[C@@]1(NC(=O)CSCC#N)C(=O)N2C(C(=O)O)=C(CSc3nnnn3C)CS[C@@H]21
Solution: 0.00545

---

conditions: in water, 278.15 K
ENDPOINT_NAME: solubility (mole fraction)
Kindly provide the number alone.

Problem: What solubility (mole fraction) value was documented for this compound, CO[C@@]1(NC(=O)CSCC#N)C(=O)N2C(C(=O)O)=C(CSc3nnnn3C)CS[C@@H]21 ?
Solution: 1.57e-05

---

conditions: in methanol, 293.15 K
ENDPOINT_NAME: solubility (mole fraction)
Could you keep your reply to the number by itself?

Problem: Any idea what solubility (mole fraction) was measured for CO[C@@]1(NC(=O)CSCC#N)C(=O)N2C(C(=O)O)=C(CSc3nnnn3C)CS[C@@H]21 ?
Solution: 0.00337

---

settings: in ethanol, 283.15 K
ENDPOINT_NAME: solubility (mole fraction)
# print the numeric value only

Problem: What does the record list as solubility (mole fraction) for CO[C@@]1(NC(=O)CSCC#N)C(=O)N2C(C(=O)O)=C(CSc3nnnn3C)CS[C@@H]21 ?
Solution: 0.000282

---

settings: in ethanol, 293.15 K
ENDPOINT_NAME: solubility (mole fraction)
Just the number.

Problem: Endpoint output: solubility (mole fraction) of CO[C@@]1(NC(=O)CSCC#N)C(=O)N2C(C(=O)O)=C(CSc3nnnn3C)CS[C@@H]21 . Value?
Solution: 0.000467

---

details: in water, 303.15 K
ENDPOINT_NAME: solubility (mole fraction)
Give the figure by itself; no unit, no explanation.

Problem: Endpoint output: solubility (mole fraction) of CO[C@@]1(NC(=O)CSCC#N)C(=O)N2C(C(=O)O)=C(CSc3nnnn3C)CS[C@@H]21 . Value?
Solution: 5.52e-05

---

details: in methanol, 278.15 K
ENDPOINT_NAME: solubility (mole fraction)
Answer with the value's number alone.

Problem: Item under review: CO[C@@]1(NC(=O)CSCC#N)C(=O)N2C(C(=O)O)=C(CSc3nnnn3C)CS[C@@H]21 . Reported solubility (mole fraction)?
Solution: 0.00154

---

conditions: in isopropanol, 278.15 K
ENDPOINT_NAME: solubility (mole fraction)
Write the number on its own, no unit after it.

Problem: Quick one: solubility (mole fraction) for CO[C@@]1(NC(=O)CSCC#N)C(=O)N2C(C(=O)O)=C(CSc3nnnn3C)CS[C@@H]21 ?
Solution: 4.6e-05

---

conditions: in methanol, 283.15 K
ENDPOINT_NAME: solubility (mole fraction)

Problem: Which solubility (mole fraction) is reported for this molecule? CO[C@@]1(NC(=O)CSCC#N)C(=O)N2C(C(=O)O)=C(CSc3nnnn3C)CS[C@@H]21
Solution: 0.00202

---

details: in isopropanol, 298.15 K
ENDPOINT_NAME: solubility (mole fraction)

Problem: Record request: solubility (mole fraction) value, item CO[C@@]1(NC(=O)CSCC#N)C(=O)N2C(C(=O)O)=C(CSc3nnnn3C)CS[C@@H]21
Solution: 0.000138
